- target: hNurr1_RXRγFL (NURR1/RXRγ heterodimer) (Homo sapiens, UniProt P43354+P48443)
- Sequence (P43354 328-598): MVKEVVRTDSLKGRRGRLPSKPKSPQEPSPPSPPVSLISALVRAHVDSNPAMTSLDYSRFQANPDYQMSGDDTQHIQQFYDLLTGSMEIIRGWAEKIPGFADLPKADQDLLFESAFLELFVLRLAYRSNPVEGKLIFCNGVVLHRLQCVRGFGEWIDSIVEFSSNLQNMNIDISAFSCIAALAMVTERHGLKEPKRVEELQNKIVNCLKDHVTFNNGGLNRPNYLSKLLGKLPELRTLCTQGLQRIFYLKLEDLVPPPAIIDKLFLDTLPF
- Sequence (P48443 whole entry, the tested form may be a part): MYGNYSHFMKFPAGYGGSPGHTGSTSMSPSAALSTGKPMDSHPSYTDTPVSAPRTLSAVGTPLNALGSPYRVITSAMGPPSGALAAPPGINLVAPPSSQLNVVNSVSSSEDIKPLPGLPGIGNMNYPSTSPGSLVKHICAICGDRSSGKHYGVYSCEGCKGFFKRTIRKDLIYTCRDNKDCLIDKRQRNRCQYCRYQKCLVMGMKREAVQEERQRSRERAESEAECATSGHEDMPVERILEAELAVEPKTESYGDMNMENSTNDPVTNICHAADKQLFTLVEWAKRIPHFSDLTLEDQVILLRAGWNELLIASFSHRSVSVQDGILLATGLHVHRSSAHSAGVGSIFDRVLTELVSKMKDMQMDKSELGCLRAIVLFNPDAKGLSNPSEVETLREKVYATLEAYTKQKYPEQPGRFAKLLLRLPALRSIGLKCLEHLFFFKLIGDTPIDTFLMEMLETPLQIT
- measurement-notes: Transactivation assay in Cos-7 cells, NURR-1-Gal4 / RXRγ, luciferase reporter
- measurement-parameters: Cos-7 cells, overnight incubation
metric-name: EC50

{"compound": "CCCCCc1ccc(S(=O)(=O)n2c(Cc3ccc(C(=O)O)cc3)cc3cc(Cl)ccc32)cc1 [Example 170]", "target": "hNurr1_RXRγFL (NURR1/RXRγ heterodimer) (Homo sapiens, UniProt P43354+P48443)", "meas-value": "> 10 µM"}
{"compound": "CC(C)(C)c1cccc(S(=O)(=O)n2c(Cc3ccc(S(N)(=O)=O)cc3)cc3cc(C(F)(F)F)ccc32)c1 [Example 198]", "target": "hNurr1_RXRγFL (NURR1/RXRγ heterodimer) (Homo sapiens, UniProt P43354+P48443)", "meas-value": "> 10 µM"}
{"compound": "O=C(O)c1cncc(Cc2cc3cc(Cl)ccc3n2S(=O)(=O)c2ccc3c(c2)OCCO3)c1 [Example 213]", "target": "hNurr1_RXRγFL (NURR1/RXRγ heterodimer) (Homo sapiens, UniProt P43354+P48443)", "meas-value": "> 10 µM"}

----------
- target: hNurr1_RXRαFL (NURR1/RXRα heterodimer) (Homo sapiens, UniProt P19793+P43354)
- Sequence (P19793 whole entry, the tested form may be a part): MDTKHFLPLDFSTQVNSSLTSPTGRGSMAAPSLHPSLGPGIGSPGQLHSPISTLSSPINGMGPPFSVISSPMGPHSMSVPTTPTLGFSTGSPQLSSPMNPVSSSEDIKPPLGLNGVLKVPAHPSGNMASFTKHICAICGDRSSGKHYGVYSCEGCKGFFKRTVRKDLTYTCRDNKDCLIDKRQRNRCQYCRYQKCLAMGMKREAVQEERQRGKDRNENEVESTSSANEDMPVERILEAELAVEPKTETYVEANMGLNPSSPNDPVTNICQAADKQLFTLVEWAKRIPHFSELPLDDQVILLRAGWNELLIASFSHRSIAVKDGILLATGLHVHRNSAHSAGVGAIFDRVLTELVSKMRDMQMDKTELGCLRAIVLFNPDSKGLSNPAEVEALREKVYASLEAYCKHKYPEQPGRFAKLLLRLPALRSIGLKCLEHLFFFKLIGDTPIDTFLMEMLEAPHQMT
- Sequence (P43354 328-598): as the sequence (P43354 328-598) above
- measurement-notes: Transactivation assay in Cos-7 cells, NURR-1-Gal4 / RXRα, luciferase reporter
- Type: cell-based
- measurement-parameters: COS-7, read-out: hNurr1_RXRαFL Eff (%), efficacy in % relative to the reference XCT0135908 at 2·10^−5 M (=100%)
Each item that follows carries a reported Emax.

{"molecule": "O=C(O)c1ccc(Cc2cc3cc(Cl)ccc3n2S(=O)(=O)c2ccc3c(c2)OCCO3)cc1 [Example 157]", "Emax [%]": 67}
{"molecule": "CC(C)(C)c1cccc(S(=O)(=O)n2c(Cc3ccc(C(=O)O)cc3F)cc3cc(C(F)(F)F)ccc32)c1 [Example 67]", "Emax [%]": 73}
{"molecule": "O=C(O)c1ccc(Cc2cc3cc(C(F)(F)F)ccc3n2S(=O)(=O)c2cccc(OC(F)(F)F)c2)cc1 [Example 145]", "Emax [%]": 44}
{"molecule": "CC(C)(C)c1cccc(S(=O)(=O)n2c(Cc3nc(C(=O)O)cs3)cc3cc(C(F)(F)F)ccc32)c1 [Example 89]", "Emax [%]": 77}
{"molecule": "O=C(O)c1ccc(Cc2cc3cc(Cl)ccc3n2S(=O)(=O)c2ccc(F)c(F)c2)cc1 [Example 153]", "Emax [%]": 85}
{"molecule": "CC(C)c1ccc(S(=O)(=O)n2c(Cc3ccc(C(=O)O)c(Cl)c3)cc3cc(C(F)(F)F)ccc32)cc1 [Example 209]", "Emax [%]": 69}
{"molecule": "CN1CCOc2ccc(S(=O)(=O)n3c(Cc4ccc(C(=O)O)s4)cc4cc(C(F)(F)F)ccc43)cc21 [Example 73]", "Emax [%]": 94}
{"molecule": "O=C(O)c1ccc(Cc2cc3cc(Cl)ccc3n2S(=O)(=O)c2cccc(C(F)(F)F)c2)cc1 [Example 28]", "Emax [%]": 78}
{"molecule": "CC(C)c1ccc(S(=O)(=O)n2c(Cc3ccc(C(=O)O)c(O)c3)cc3cc(Cl)ccc32)cc1 [Example 99]", "Emax [%]": 50}
{"molecule": "COC(=O)c1ccc(Cc2cc3cc(Cl)ccc3n2S(=O)(=O)c2ccc(C(C)C)cc2)cc1 [Example 40]", "Emax [%]": 96}
{"molecule": "COc1ccc(S(=O)(=O)n2c(Cc3ccc(C(=O)O)cc3)cc3cc(Cl)ccc32)cc1 [Example 165]", "Emax [%]": 51}
{"molecule": "Cn1cc(Cc2cc3cc(C(F)(F)F)ccc3n2S(=O)(=O)c2cccc(C(C)(C)C)c2)cc1C(=O)O [Example 87]", "Emax [%]": 123}
{"molecule": "CN1CCOc2ccc(S(=O)(=O)n3c(Cc4ccc(F)c(C(=O)O)c4)cc4cc(C(F)(F)F)ccc43)cc21 [Example 212]", "Emax [%]": 80}
{"molecule": "CC(C)(C)c1cccc(S(=O)(=O)n2c(Cc3ccc(C=C4SC(=S)NC4=O)cc3)cc3cc(C(F)(F)F)ccc32)c1 [Example 223]", "Emax [%]": 72}
{"molecule": "O=C(O)c1ccc(Cc2cc3cc(C(F)(F)F)ccc3n2S(=O)(=O)c2ccsc2)cc1 [Example 16]", "Emax [%]": 66}
{"molecule": "CN1CCOc2ccc(S(=O)(=O)n3c(Cc4ccc(C(=O)O)o4)cc4cc(C(F)(F)F)ccc43)cc21 [Example 75]", "Emax [%]": 114}
{"molecule": "CC(C)(C)c1cccc(S(=O)(=O)n2c(Cc3ccc(C(=O)O)cc3)c(F)c3cc(C(F)(F)F)ccc32)c1 [Example 149]", "Emax [%]": 98}
{"molecule": "O=C(O)c1ccc(Cc2cc3cc(C(F)(F)F)ccc3n2S(=O)(=O)c2cccc(SC(F)F)c2)cc1 [Example 126]", "Emax [%]": 44}
{"molecule": "COc1c(Cc2cc3cc(C(F)(F)F)ccc3n2S(=O)(=O)c2cccc(C(C)(C)C)c2)cccc1C(=O)O [Example 207]", "Emax [%]": 48}
{"molecule": "COc1ccc(S(=O)(=O)n2c(Cc3ccc(C(=O)O)cc3)cc3cc(C(F)(F)F)ccc32)cn1 [Example 120]", "Emax [%]": 68}
{"molecule": "CC(C)(C)c1cccc(S(=O)(=O)n2c(C(C)(O)c3ccc(C(=O)O)s3)cc3cc(C(F)(F)F)ccc32)c1 (centres unmarked) [Example 95]", "Emax [%]": 99}
{"molecule": "COC(=O)c1cc(Cc2cc3cc(C(F)(F)F)ccc3n2S(=O)(=O)c2cccc(C(C)(C)C)c2)cn1C [Example 192]", "Emax [%]": 85}
{"molecule": "CC(C)(C)c1ccc(S(=O)(=O)n2c(Cc3ccc(C(=O)O)cc3)cc3cc(Cl)ccc32)cc1 [Example 155]", "Emax [%]": 69}
